Target: ABCB1 (P-glycoprotein) (Homo sapiens)
Sequence (P08183 whole entry): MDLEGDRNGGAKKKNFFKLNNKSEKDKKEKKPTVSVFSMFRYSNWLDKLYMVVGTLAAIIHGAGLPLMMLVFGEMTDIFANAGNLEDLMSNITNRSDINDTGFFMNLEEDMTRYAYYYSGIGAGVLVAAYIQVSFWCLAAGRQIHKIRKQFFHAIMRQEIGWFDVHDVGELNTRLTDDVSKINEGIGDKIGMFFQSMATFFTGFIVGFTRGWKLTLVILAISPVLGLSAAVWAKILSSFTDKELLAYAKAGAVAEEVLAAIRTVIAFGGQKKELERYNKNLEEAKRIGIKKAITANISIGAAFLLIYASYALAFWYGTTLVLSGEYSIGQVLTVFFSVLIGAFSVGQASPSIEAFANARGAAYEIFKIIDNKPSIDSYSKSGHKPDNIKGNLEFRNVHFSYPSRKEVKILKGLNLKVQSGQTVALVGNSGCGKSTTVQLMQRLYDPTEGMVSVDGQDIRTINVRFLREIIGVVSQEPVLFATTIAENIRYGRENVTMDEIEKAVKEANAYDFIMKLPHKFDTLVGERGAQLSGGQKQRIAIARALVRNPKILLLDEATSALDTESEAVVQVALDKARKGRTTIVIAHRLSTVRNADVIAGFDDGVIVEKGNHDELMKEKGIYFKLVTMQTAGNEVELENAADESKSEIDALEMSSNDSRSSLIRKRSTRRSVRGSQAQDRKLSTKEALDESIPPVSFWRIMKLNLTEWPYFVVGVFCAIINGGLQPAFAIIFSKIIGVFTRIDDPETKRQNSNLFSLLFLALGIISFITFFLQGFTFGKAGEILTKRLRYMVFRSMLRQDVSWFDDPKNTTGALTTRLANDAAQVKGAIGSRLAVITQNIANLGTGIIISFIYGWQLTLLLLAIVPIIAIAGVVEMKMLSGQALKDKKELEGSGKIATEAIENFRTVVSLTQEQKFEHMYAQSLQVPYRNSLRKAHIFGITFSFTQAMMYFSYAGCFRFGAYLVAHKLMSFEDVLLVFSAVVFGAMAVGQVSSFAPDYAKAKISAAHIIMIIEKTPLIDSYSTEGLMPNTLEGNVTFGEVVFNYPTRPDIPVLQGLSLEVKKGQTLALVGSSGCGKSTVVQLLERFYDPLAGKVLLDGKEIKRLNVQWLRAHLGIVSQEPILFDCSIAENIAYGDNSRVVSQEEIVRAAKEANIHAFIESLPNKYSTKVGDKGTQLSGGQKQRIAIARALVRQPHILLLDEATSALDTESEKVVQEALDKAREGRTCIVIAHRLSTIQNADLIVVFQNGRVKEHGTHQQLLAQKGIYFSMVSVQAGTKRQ
Assay: Inhibition of ABCB1 in human A2780/ADR cells at 10 uM incubated for 30 mins measured up to 3600 secs with time intervals of 60 secs by calcein accumulation assay relative to cyclosporine A
Type: cell-based
Settings: probe calcein, read-out: Imax
The following molecules are listed with their measured inhibition at 30 min, 10 µM values.
quantity: inhibition at 30 min, 10 µM (%)

sample_smiles=COc1ccc(/C=C/C(=O)c2cccc(Nc3nc(-c4ccc(OC)c(OC)c4)nc4ccccc34)c2)cc1OC quantity="inhibition at 30 min, 10 µM" units_text=% observed_result=76
sample_smiles=COc1ccc(/C=C/C(=O)c2cccc(Nc3nc(-c4ccc(OC)c(OC)c4)nc4ccccc34)c2)cc1 quantity="inhibition at 30 min, 10 µM" units_text=% observed_result=70
sample_smiles=COc1ccc(/C=C/C(=O)c2cccc(Nc3ncnc4cc(OC)c(OC)cc34)c2)cc1OC quantity="inhibition at 30 min, 10 µM" units_text=% observed_result=68
sample_smiles=COc1ccc(/C=C/C(=O)c2ccc(Nc3ncnc4ccccc34)cc2)cc1OC quantity="inhibition at 30 min, 10 µM" units_text=% observed_result=61
sample_smiles=COc1ccc(/C=C/C(=O)c2cccc(Nc3ncnc4ccccc34)c2)cc1OC quantity="inhibition at 30 min, 10 µM" units_text=% observed_result=66

----------
The following compounds are listed with their measured GI50 at 72 h values.
Experiment: Cytotoxicity against human A2780/ADR cells overexpressing ABCB1 assessed as reduction in cell viability after 72 hrs by MTT assay
Type: ADME, cell-based
quantity: GI50 at 72 h (nM)

sample_smiles=COc1ccc(/C=C/C(=O)c2cccc(Nc3nc(-c4ccc(OC)c(OC)c4)nc4ccccc34)c2)cc1 units_text=nM observed_result=3250
sample_smiles=COc1ccc(/C=C/C(=O)c2cccc(Nc3ncnc4ccccc34)c2)cc1OC units_text=nM observed_result=700
sample_smiles=COc1ccc(/C=C/C(=O)c2cccc(Nc3ncnc4cc(OC)c(OC)cc34)c2)cc1OC units_text=nM observed_result=1500
sample_smiles=COc1ccc(/C=C/C(=O)c2cccc(Nc3nc(-c4ccc(OC)c(OC)c4)nc4ccccc34)c2)cc1OC units_text=nM observed_result=1710

----------
Test system: ABCG2
Experiment: Therapeutic ratio of GI50 for MDCK2 cells expressing human C-terminal GFP-tagged ABCG2 to IC50 for human C-terminal GFP-tagged ABCG2 expressed in MDCK2 cells
Format: ADME, cell-based
Details: dog, read-out: TI
quantity: selectivity ratio

sample_smiles=COc1ccc(/C=C/C(=O)c2cccc(Nc3ncnc4cc(OC)c(OC)cc34)c2)cc1 observed_result=40
sample_smiles=COc1ccc(/C=C/C(=O)c2ccc(Nc3nc(-c4ccc(OC)c(OC)c4)nc4ccccc34)cc2)cc1OC observed_result=489
sample_smiles=COc1ccc(/C=C/C(=O)c2cccc(Nc3nc(-c4ccc(OC)c(OC)c4)nc4ccccc34)c2)cc1OC observed_result=18
sample_smiles=COc1ccc(/C=C/C(=O)c2cccc(Nc3ncnc4cc(OC)c(OC)cc34)c2)cc1OC observed_result=7
sample_smiles=COc1ccc(/C=C/C(=O)c2ccc(Nc3nc(-c4ccccc4)nc4ccccc34)cc2)cc1OC observed_result=17
sample_smiles=COc1ccc(/C=C/C(=O)c2cccc(Nc3ncnc4ccccc34)c2)cc1OC observed_result=4
sample_smiles=COc1ccc(/C=C/C(=O)c2cccc(Nc3nc(-c4ccc(OC)c(OC)c4)nc4ccccc34)c2)cc1 observed_result=62
sample_smiles=COc1cccc(/C=C/C(=O)c2cccc(Nc3nc(-c4ccc(OC)c(OC)c4)nc4ccccc34)c2)c1 observed_result=273
